Reported Intrinsic Activity, cAMP, 10 ng/mL Doxycycline by item:
Target Or System: human melanocortin-4 receptor (human, UniProt P32245 1-332)
Sequence (P32245 whole entry): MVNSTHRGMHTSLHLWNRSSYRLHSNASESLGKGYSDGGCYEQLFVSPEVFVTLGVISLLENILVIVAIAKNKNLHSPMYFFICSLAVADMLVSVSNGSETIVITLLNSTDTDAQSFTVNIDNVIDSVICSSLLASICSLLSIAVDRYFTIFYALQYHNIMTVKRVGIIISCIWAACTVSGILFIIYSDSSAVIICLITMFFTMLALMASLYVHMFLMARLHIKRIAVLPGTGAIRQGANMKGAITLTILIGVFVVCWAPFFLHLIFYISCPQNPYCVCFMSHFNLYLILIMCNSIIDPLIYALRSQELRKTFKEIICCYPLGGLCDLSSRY
Experiment: cell-based or functional assay
Positions of bridges follow the written chain, without caps; N, C: chain ends. Non-standard residues stand in square brackets, D forms with d. dPhe(3,4,5-F3) = N[C@H](Cc1cc(F)c(F)c(F)c1)C(=O)O; dPhe(4-CN) = N#Cc1ccc(C[C@@H](N)C(=O)O)cc1; dPhe(4-F) = N[C@H](Cc1ccc(F)cc1)C(=O)O; Orn = NCCC[C@H](N)C(=O)O
Parameter: Intrinsic Activity, cAMP, 10 ng/mL Doxycycline (%)

| Binder | Unit Label | Observed Result |
| --- | --- | --- |
| Ac-REN[dPhe(4-F)]RW[Orn]-NH2 (lactam 2-7, also called No. 69) [Ac-Arg-cyclo(Glu-Asn-D-Phe(4-F)-Arg-Trp-Orn)-NH2] | % | 92 |
| Ac-RDN[dPhe(4-CN)]RWK-NH2 (lactam 2-7, also called No. 89) [Ac-Arg-cyclo(Asp-Asn-D-Phe(4-CN)-Arg-Trp-Lys)-NH2] | % | 87 |
| Ac-REN[dPhe(3,4,5-F3)]RW[Orn]-NH2 (lactam 2-7, also called No. 95) [Ac-Arg-cyclo(Glu-Asn-D-Phe(3,4,5-triF)-Arg-Trp-Orn)-NH2] | % | 100 |
